biological target: PregOBP56a (Phormia regina odorant-binding protein 56a) (Phormia regina, UniProt L8B8J6); construct: recombinant mature PregOBP56a (117 amino acid residues); experiment: direct fluorescence titration of the reporter probe, pH […]
Endpoint Name: Kd (µM)
Write it as a number; the unit µM goes unstated.

Qu. Dear colleague, I am looking for the recorded Kd of the following compound: "c1ccc(Nc2cccc3ccccc23)cc1"
Ans. 11.4

* * *

Target: PregOBP56a (Phormia regina odorant-binding protein 56a) (Phormia regina, UniProt L8B8J6)
Construct: recombinant mature PregOBP56a (117 amino acid residues)
Sequence (L8B8J6 19-135): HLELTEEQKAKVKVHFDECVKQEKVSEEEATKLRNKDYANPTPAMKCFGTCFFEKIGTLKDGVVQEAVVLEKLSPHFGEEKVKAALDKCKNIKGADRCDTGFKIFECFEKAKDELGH
Experiment: fluorescence competitive binding assay (1-NPN displacement), pH […]
Endpoint Name: Kd (µM)
Write it as a number; the unit µM goes unstated.

# Chem Smiles, Assayed System, Unit Symbol, Kd
records = [
    ("CCCCCCCCCCCCCCCC(=O)O", "PregOBP56a (Phormia regina odorant-binding protein 56a) (Phormia regina, UniProt L8B8J6)", "µM", 0.28),
    ("CCCCCCCCCCCCCCCCCC(=O)O", "PregOBP56a (Phormia regina odorant-binding protein 56a) (Phormia regina, UniProt L8B8J6)", "µM", 0.35),
    ("CCCCCCCC/C=C\\CCCCCCCC(=O)O", "PregOBP56a (Phormia regina odorant-binding protein 56a) (Phormia regina, UniProt L8B8J6)", "µM", 0.71),
]

Qu. Quick check: Kd on PregOBP56a (Phormia regina odorant-binding protein 56a) (Phormia regina, UniProt L8B8J6), item "CCCCC/C=C\C/C=C\CCCCCCCC(=O)O" ?
Ans. 0.51
